The entries below come with measured koff values attached.
# experimental_target: T1, human interleukin-23 receptor (IL23R) (human, UniProt Q5VWK5 24-355, limits assumed)
# T1 construct: also called human IL23R
# T1 sequence (looked up): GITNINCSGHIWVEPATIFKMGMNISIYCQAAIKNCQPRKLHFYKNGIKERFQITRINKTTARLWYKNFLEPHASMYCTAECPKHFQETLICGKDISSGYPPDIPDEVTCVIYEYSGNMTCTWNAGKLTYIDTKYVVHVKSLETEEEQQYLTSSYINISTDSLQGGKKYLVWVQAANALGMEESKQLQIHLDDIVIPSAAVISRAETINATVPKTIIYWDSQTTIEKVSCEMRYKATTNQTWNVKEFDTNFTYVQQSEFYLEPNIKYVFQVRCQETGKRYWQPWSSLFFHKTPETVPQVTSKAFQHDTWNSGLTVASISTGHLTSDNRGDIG
# assay_protocol: SPR, scFv
Be sure to follow the number with its unit.

Below are worked cases with known answers.
binder: Vκ1/VH5 consensus λ-capped, human IL23R specific scFv (scFv, scFv VL-linker-VH, made in E. coli; also called Vκ1VH5 capped) scFv: DIQMTQSPSSLSASVGDRVTITCQASENIYSFLAWYQQKPGKAPKLLIYSASKLAAGVPSRFSGSGSGTDFTLTISSLQPEDFATYYCQQTNRYSNPDIYNVFGGGTKLTVLGGGGGSGGGGSGGGGSGGGGSEVQLVQSGAEVKKPGESLKISCKGSGIDFNSNYYMCWVRQMPGKGLEWMGCIYVGSHVNTYYANWAKGQVTISADKSISTAYLQWSSLKASDTAMYYCATSGSSVLYFKFWGQGTLVTVSS
koff: 0.000671 s⁻¹

binder: Vκ1/VH1A consensus λ-capped, human IL23R specific scFv (scFv, scFv VL-linker-VH, made in E. coli; also called Vκ1VH1A capped) scFv: DIQMTQSPSSLSASVGDRVTITCQASENIYSFLAWYQQKPGKAPKLLIYSASKLAAGVPSRFSGSGSGTDFTLTISSLQPEDFATYYCQQTNRYSNPDIYNVFGGGTKLTVLGGGGGSGGGGSGGGGSGGGGSQVQLVQSGAEVKKPGSSVKVSCKASGIDFNSNYYMCWVRQAPGQGLEWMGCIYVGSHVNTYYANWAKGRVTITADESTSTAYMELSSLRSEDTAVYYCATSGSSVLYFKFWGQGTLVTVSS
koff: 0.000616 s⁻¹

binder: Vκ2/VH2 consensus λ-capped, human IL23R specific scFv (scFv, scFv VL-linker-VH, made in E. coli; also called Vκ2VH2 capped) scFv: DIVMTQSPLSLPVTPGEPASISCQASENIYSFLAWYLQKPGQSPQLLIYSASKLAAGVPDRFSGSGSGTDFTLKISRVEAEDVGVYYCQQTNRYSNPDIYNVFGGGTKLTVLGGGGGSGGGGSGGGGSGGGGSQVQLKESGPALVKPTQTLTLTCTFSGIDFNSNYYMCWIRQPPGKALEWLACIYVGSHVNTYYANWAKGRLTISKDTSKNQVVLTMTNMDPVDTATYYCATSGSSVLYFKFWGQGTLVTVSS
koff: 0.000102 s⁻¹

binder: Vκ3/VH4 consensus λ-capped, human IL23R specific scFv (scFv, scFv VL-linker-VH, made in E. coli; also called Vκ3VH4 capped) scFv: DIVLTQSPATLSLSPGERATLSCQASENIYSFLAWYQQKPGQAPRLLIYSASKLAAGVPARFSGSGSGTDFTLTISSLEPEDFAVYYCQQTNRYSNPDIYNVFGGGTKLTVLGGGGGSGGGGSGGGGSGGGGSQVQLQESGPGLVKPSETLSLTCTVSGIDFNSNYYMCWIRQPPGKGLEWIGCIYVGSHVNTYYANWAKGRVTISVDTSKNQFSLKLSSVTAADTAVYYCATSGSSVLYFKFWGQGTLVTVSS
koff: 0.000288 s⁻¹

Ask: Consider the binder Vκ2/VH1B consensus λ-capped, human IL23R specific scFv (scFv, scFv VL-linker-VH, made in E. coli; also called Vκ2VH1B capped) scFv: DIVMTQSPLSLPVTPGEPASISCQASENIYSFLAWYLQKPGQSPQLLIYSASKLAAGVPDRFSGSGSGTDFTLKISRVEAEDVGVYYCQQTNRYSNPDIYNVFGGGTKLTVLGGGGGSGGGGSGGGGSGGGGSQVQLVQSGAEVKKPGASVKVSCKASGIDFNSNYYMCWVRQAPGQGLEWMGCIYVGSHVNTYYANWAKGRVTMTRDTSISTAYMELSSLRSEDTAVYYCATSGSSVLYFKFWGQGTLVTVSS and give its measured koff.
Reply: 0.000326 s⁻¹
